READOUT_TYPE: melting point

Solved entries:
>>> print(df.to_string())
                                   molecule  value_reported
0  Cc1cc(C)c(Nc2nc(C)ncc2S(=O)(=O)c2ccc(C3=NCCN3)cc2)c(C)c1   240 to 242 °C
1                COc1cc2c(cc1Br)CC/C2=C\C#N   180 to 182 °C
2  CCCCCCCCCCCCCCCCCC(=O)N1CC2(CCCCC2)NC2(CCCCC2)C1     56 to 59 °C

Each molecule below has a reported value. Please supply its melting point.
1. O=C(Nc1ccccc1)Nc1cnc(-c2ccccc2)nc1-c1ccccc1Cl
2. COc1ccc(C(O)CN2CC=C(C3=NNC(=O)CS3)CC2)cc1 (stereo unspecified)
3. C=CCNC(=O)C(O)C1OC(n2cnc3c(N)ncnc32)C(O)C1O (stereo unspecified)

1: 195 to 198 °C; 2: 197 to 198 °C; 3: 136 to 138 °C

Data origin: a melting point compilation (Tetko et al.; mined from patent text by program, amines drawn as free bases though some values may be those of a salt)
